targetDesc: human carbonic anhydrase II (Homo sapiens)
Construct: purchased Sigma
assayRemarks: Multiparametric surface plasmon resonance (MP-SPR) interaction kinetics with immobilized hCAII
Type: binding
runParameters: MP-SPR, 25 °C, 1:1 model; read-out: KD
pKd: −log10 of the molar value.
readoutType: pKd

Answered examples (4):
- inputSmiles: "C/C(=N\\Nc1ccc(S(N)(=O)=O)cc1)c1cccnc1"
  pKd: 7.43
- inputSmiles: "CC(=NNc1ccc(S(N)(=O)=O)cc1)c1nccnc1C"
  pKd: 7.50
- inputSmiles: "NS(=O)(=O)c1ccc(NN=C(c2cncc(F)c2)C2CC2)cc1"
  pKd: 7.12
- inputSmiles: "CC(=NNc1ccc(S(N)(=O)=O)cc1)c1cnc2ccccc2n1"
  pKd: 6.95

A. CC(=NNc1ccc(S(N)(=O)=O)cc1Br)c1cccnc1
B. CC(=NNc1ccc(S(N)(=O)=O)cc1)c1cncc(Br)c1
Query block: Lower pKd: A or B ? Select an item and report its label.
Result block: B

Values were extracted from paper PMC11795524.
